test system: E. coli TESEC Alr+ wild-type control; assay: growth (OD600 after 10 h); higher = more growth (less inhibition); details: compound 0.1 mM; raw OD600 reference: median of DMSO wells 0.241, cell-free background 0.041
Where a name gives a salt, the structure may show the parent alone.

compound | growth
C=CCN1CC[C@]23c4c5ccc(O)c4O[C@H]2C(=O)CC[C@@]3(O)[C@H]1C5 [Naloxone hydrochloride] | 0.244
O=C(CCCN1CCC(n2c(=O)[nH]c3ccccc32)CC1)c1ccc(F)cc1 | 0.181
COc1ccc(Cc2nccc3cc(OC)c(OC)cc23)cc1OC [Papaverine hydrochloride] | 0.153
CCC1(c2ccc(N)cc2)CCC(=O)NC1=O (configuration not stated) [Glutethimide, para-amino] | 0.24
O=[N+]([O-])O[C@@H]1CO[C@H]2[C@@H]1OC[C@@H]2O [Isosorbide mononitrate] | 0.24
C[CH2][Hg][S]c1ccccc1C(=O)[O-].[Na+] | 0.0433
CC(C)N(CCC(C(N)=O)(c1ccccc1)c1ccccn1)C(C)C (configuration not stated) [Disopyramide] | 0.236
Cc1cc(C(C#N)c2ccc(Cl)cc2)c(Cl)cc1NC(=O)c1cc(I)cc(I)c1O (configuration not stated) | 0.067
O=c1[nH]c2ccccc2n1C1CCN(CCCC(c2ccc(F)cc2)c2ccc(F)cc2)CC1 [Pimozide] | 0.164
COc1ccc(C(CN(C)C)C2(O)CCCCC2)cc1 (configuration not stated) | 0.219
CN1[C@@H]2CC[C@H]1C[C@@H](OC1c3ccccc3CCc3ccccc31)C2 [Deptropine citrate] | 0.046
CC[C@@]1(O)C(=O)OCc2c1cc1n(c2=O)Cc2cc3ccccc3nc2-1 [Camptothecine (S,+)] | 0.24
C[C@@H]1CC[C@H]2[C@@H](C)C(=O)O[C@@H]3O[C@@]4(C)CC[C@@H]1[C@]32OO4 | 0.125
CC(C)CC(N(C)C)C1(c2ccc(Cl)cc2)CCC1 (configuration not stated) [Sibutramine HCl] | 0.198
C[N+]12CCC(CC1)C(OC(=O)C(O)(c1ccccc1)c1ccccc1)C2 (configuration not stated) [Clidinium bromide] | 0.239
CCn1cc(C(=O)O)c(=O)c2cc3c(cc21)OCO3 | 0.0726
CCC(=O)O[C@@](Cc1ccccc1)(c1ccccc1)[C@@H](C)CN(C)C [Levopropoxyphene napsylate] | 0.178

###

Quick reference for growth among some compounds
system: E. coli TESEC Mtb Alr; test: growth (OD600 after 10 h); higher = more growth (less inhibition); conditions: arabinose 1000 nM; compound 0.1 mM; raw OD600 reference: median of DMSO wells 0.294, cell-free background 0.041

compound | growth
CC(C)c1cccc(C(C)C)c1O | 0.309
C[C@]12CC[C@H](O)C[C@@H]1CC[C@@H]1[C@@H]2CC[C@]2(C)C(=O)CC[C@@H]12 [Epiandrosterone] | 0.12
CC1C=CC=CCCC=CC=CC=CC=CC(OC2OC(C)C(O)C(N)C2O)CC2OC(O)(CC(O)C(O)CCC(O)CC(O)CC(O)CC(=O)OC(C)C(C)C1O)CC(O)C2C(=O)O (centres undefined) | 0.307
CC[C@@H](C(N)=O)N1CCCC1=O | 0.304

###

system: E. coli TESEC Mtb Alr; assay: growth (OD600 after 10 h); higher = more growth (less inhibition); settings: arabinose 1000 nM; compound 0.1 mM; raw OD600 reference: median of DMSO wells 0.294, cell-free background 0.041
Where a name gives a salt, the structure may show the parent alone.
Would you please tag the item TRUE when its growth is 0.3 or above, and FALSE when it is below?

molecule | classification
NCC1(CC(=O)O)CCCCC1 | TRUE
C[C@]12COC(=O)C[C@@H]1CC[C@@H]1[C@@H]2CC[C@@]2(C)[C@H]1CC[C@]2(C)O | FALSE
CCN(CC)C(C)C(=O)c1ccccc1 (stereo not given) [Amfepramone hydrochloride] | FALSE

###

Quick reference for growth among some compounds
test system: E. coli TESEC Mtb Alr; assay: growth (OD600 after 10 h); higher = more growth (less inhibition); details: arabinose 10000 nM; compound 0.1 mM; raw OD600 reference: median of DMSO wells 0.264, cell-free background 0.041
Structures can show the parent of a compound that is named as a salt.
property-name: growth

compound | endpoint-value
CN1CCC2(C)c3cc(O)ccc3N(C)C12 (single isomer, unassigned; (-)) [(-)-Eseroline fumarate salt] | 0.306
C[C@@H]1CC[C@H]2[C@@H](C)C(=O)O[C@@H]3O[C@@]4(C)CC[C@@H]1[C@]32OO4 [Artemisinin] | 0.194
C[C@@]12N[C@@H](Cc3ccccc31)c1ccccc12 [(-)-MK 801 hydrogen maleate] | 0.247
C[N+]1(C)CCCC(OC(=O)C(O)(c2ccccc2)c2ccccc2)C1 (centres undefined) [Mepenzolate bromide] | 0.258
CC(C)(C)NCC(O)c1ccccc1Cl (centres undefined) [Tulobuterol] | 0.273
NCCc1c[nH]c2ccc(O)cc12 [Serotonin hydrochloride] | 0.269
CN[C@@H]1[C@@H](O)[C@@H](O[C@@H]2[C@@H](O)[C@H](O[C@H]3O[C@H](CN)CC[C@H]3N)[C@@H](N)C[C@H]2N)OC[C@]1(C)O.CN[C@@H]1[C@@H](O)[C@@H](O[C@@H]2[C@@H](O)[C@H](O[C@H]3O[C@H]([C@@H](C)N)CC[C@H]3N)[C@@H](N)C[C@H]2N)OC[C@]1(C)O.CN[C@@H]1[C@@H](O)[C@@H](O[C@@H]2[C@@H](O)[C@H](O[C@H]3O[C@H]([C@@H](C)NC)CC[C@H]3N)[C@@H](N)C[C@H]2N)OC[C@]1(C)O [Gentamicine sulfate] | 0.0414
NC(=O)C[S+]([O-])C(c1ccccc1)c1ccccc1 (centres undefined) [Modafinil] | 0.255
Oc1ccc2c3c1O[C@H]1[C@@H](O)CC[C@@]4(O)[C@@H](C2)N(CC2CCC2)CC[C@]314 [Nalbuphine hydrochloride] | 0.266
COc1cc([C@@H]2c3cc4c(cc3[C@H](O)[C@H]3COC(=O)[C@H]23)OCO4)cc(OC)c1OC [Podophyllotoxin] | 0.271
C[N+]1(C)[C@@H]2CC[C@H]1C[C@@H](OC(=O)C(CO)c1ccccc1)C2 (some centres undefined) [Methylatropine nitrate] | 0.247
CCC1(C)CC(=O)NC(=O)C1 [Bemegride] | 0.253
O=C(NCNC(=O)NC1C(=O)NC(=O)N1CO)NC1C(=O)NC(=O)N1CO (centres undefined) [Imidurea] | 0.289
CCn1cc(C(=O)O)c(=O)c2cc3c(cc21)OCO3 [Oxolinic acid] | 0.0509
C#C[C@]1(O)CC[C@H]2[C@@H]3CCC4=CC(=O)CC[C@]4(C)[C@H]3CC[C@@]21C [Ethisterone] | 0.259
CC(Cc1ccccc1)NCCC(c1ccccc1)c1ccccc1 (centres undefined) [Prenylamine lactate] | 0.0394
CCOC(=O)c1cncn1[C@H](C)c1ccccc1 [Etomidate] | 0.275
CCC1(c2cccc(O)c2)CCCCN(C)C1 (centres undefined) [Meptazinol hydrochloride] | 0.3
C[C@]12CC[C@@H](O)C[C@@H]1CC[C@@H]1[C@@H]2CC[C@]2(C)C(=O)CC[C@@H]12 [Androsterone] | 0.212
CN(C)[C@@H]1C(=O)C(C(N)=O)=C(O)[C@@]2(O)C(=O)C3=C(O)c4c(O)cccc4[C@@](C)(O)[C@H]3[C@H](O)[C@@H]12 [Oxytetracycline dihydrate] | 0.0418
CCC1(CC)C(=O)C=CNC1=O [Pyrithyldione] | 0.289
NCC1(CC(=O)O)CCCCC1 [Gabapentin] | 0.281
C[C@]12C[C@H]3S[C@H]3C[C@@H]1CC[C@@H]1[C@@H]2CC[C@]2(C)[C@@H](O)CC[C@@H]12 [Epitiostanol] | 0.281
CC(=O)O[C@H]1CC[C@@]2(C)C(=CC[C@@H]3[C@@H]2CC[C@]2(C)C(=O)CC[C@@H]32)C1 [Dehydroisoandosterone 3-acetate] | 0.253

###

tested on: E. coli TESEC Mtb Alr; test: growth (OD600 after 10 h); higher = more growth (less inhibition); settings: arabinose 10000000 nM; compound 0.1 mM; raw OD600 reference: median of DMSO wells […], cell-free background 0.052
Counter-ions that a name gives are not always drawn.
Quick reference for growth among some compounds

compound | target-system | growth
CNC(C)(C)Cc1ccccc1 [Mephentermine hemisulfate] | E. coli TESEC Mtb Alr | 0.381
CCN(CC)C(C)C(=O)c1ccccc1 (stereo not drawn) [Amfepramone hydrochloride] | E. coli TESEC Mtb Alr | 0.325
CCC1(CC)C(=O)C=CNC1=O [Pyrithyldione] | E. coli TESEC Mtb Alr | 0.398
Clc1ccc(C(OCCN2CCCCC2)c2ccccc2)cc1 (stereo not drawn) [Cloperastine hydrochloride] | E. coli TESEC Mtb Alr | 0.147
C[N+](C)(C)CCCCCCCCCC[N+](C)(C)C [Decamethonium bromide] | E. coli TESEC Mtb Alr | 0.376
CC(=O)O[C@H]1C[C@@H]2CC[C@@H]3[C@H](CC[C@@]4(C)[C@H]3C[C@H]([N+]3(C)CCCCC3)[C@@H]4OC(C)=O)[C@@]2(C)C[C@@H]1[N+]1(C)CCCCC1 [Pancuronium bromide] | E. coli TESEC Mtb Alr | 0.349
CC(C)(C)NCC(O)c1cc(Cl)c(N)c(Cl)c1 (stereo not drawn) [Clenbuterol hydrochloride] | E. coli TESEC Mtb Alr | 0.355
C[N+]1(C)CCCC(OC(=O)C(O)(c2ccccc2)c2ccccc2)C1 (stereo not drawn) [Mepenzolate bromide] | E. coli TESEC Mtb Alr | 0.345
O=c1[nH]oc2c1CCNC2 [THIP Hydrochloride] | E. coli TESEC Mtb Alr | 0.349
C[C@]12CCC(=O)C=C1CC[C@@H]1[C@@H]2C(=O)C[C@]2(C)C(=O)CC[C@@H]12 [Adrenosterone] | E. coli TESEC Mtb Alr | 0.295
CN1CCC2(C)c3cc(O)ccc3N(C)C12 (single isomer, unassigned; (-)) [(-)-Eseroline fumarate salt] | E. coli TESEC Mtb Alr | 0.317
CN1C[C@H](C(=O)N[C@]2(C)O[C@@]3(O)[C@@H]4CCCN4C(=O)[C@H](Cc4ccccc4)N3C2=O)C[C@@H]2c3cccc4[nH]cc(c34)C[C@H]21 [Dihydroergotamine tartrate] | E. coli TESEC Mtb Alr | 0.0688
Cc1cccc(C)c1NC1=NCCCS1 [Xylazine] | E. coli TESEC Mtb Alr | 0.352
CCN(C(C)=O)c1cccc(-c2ccnc3c(C#N)cnn23)c1 [Zaleplon] | E. coli TESEC Mtb Alr | 0.298
CCN[C@@H](C)Cc1cccc(C(F)(F)F)c1 [Dexfenfluramine hydrochloride] | E. coli TESEC Mtb Alr | 0.351
CC(=O)[C@H]1CC[C@H]2[C@@H]3CC[C@H]4C[C@H](O)CC[C@]4(C)[C@H]3C(=O)C[C@]12C [Alfaxalone] | E. coli TESEC Mtb Alr | 0.192
CCn1cc(C(=O)O)c(=O)c2cc3c(cc21)OCO3 [Oxolinic acid] | E. coli TESEC Mtb Alr | 0.0582
C=CCC1(CC(C)C)C(=O)NC(=O)NC1=O [Butalbital] | E. coli TESEC Mtb Alr | 0.37
